# System: Caco-2
# Test Name: cell viability relative to DMSO; higher = less toxic
# Reported Conditions: 72 h; 10 nM
Recorded Metric: cell viability (%)
Write the value in % as a bare number.

Illustrative cases are given below, each with its answer.
Compound	Assay Target	cell viability (%)
CCOC(=O)c1cc2ccc(O)cc2oc1=O	Caco-2	94.3
CC(/C=C1\SC(=S)N(CC(=O)O)C1=O)=C\c1ccccc1	Caco-2	87.2
Nc1ccccc1NC(=O)c1ccc(CNc2nccc(-c3cccnc3)n2)cc1	Caco-2	100
c1ccc(-c2ccc(C(c3ccccc3)n3ccnc3)cc2)cc1 (stereo not drawn)	Caco-2	99.7
Cc1noc(-c2ccc(-c3ccc(CC(=O)O)cc3)cc2)c1NC(=O)O[C@H](C)c1ccccc1	Caco-2	97.4

Here is another compound to look at.
**Q:** If you can, please state the reported cell viability value of CCCCCCCCCC(=O)OCCN1CCN(CCCN2c3ccccc3Sc3ccc(C(F)(F)F)cc32)CC1 [fluphenazine-decanoate] .
**A:** 84.8
